For each of the molecules below, state its growth.
- Test system: KM12 colon
- ASSAY_PROTOCOL: NCI-60 one-dose screen, 48 h (100 = growth as untreated, 0 = no growth, -100 = all killed)
- STATED_CONDITIONS: 10 µM unless noted
This is part of a sample that, as a whole, favours compounds with a hit. Of some 83,000 tested, about 20% had one in any assay.
Output spec: scalar in %, unitless text.

input: Provide measured growth value, entry: `c1ccc(-c2ccc3c(c2)C2(CCNCC2)CN3)cc1`
output: 87.7

input: Give the measured growth for `COc1ccc(NC(=O)c2ccc(Nc3ncnc4c3cnn4-c3cccc(F)c3)cc2)cc1`
output: 100

input: Complete the entry with growth for Cc1nc2sc(C(=O)Nc3ccccn3)c(N)c2cc1C(C)O (configuration not stated)
output: 37.5

input: For the molecule `C/C=C1/CN(CCCCC)CC[C@H]1C(=O)c1cc2ccccc2[nH]1` , report growth.
output: 109

input: Specify growth for `CN(C)c1ccc(/C=N\NC(=O)c2ccc3nc(-c4ccc(Cl)cc4)[nH]c3c2)cc1` and stop.
output: 64.9

input: Look up growth of `N#Cc1c(-c2ccccc2)cc(-c2ccccc2)n(CCCCC(=O)NO)c1=O` and report it.
output: 22.9

input: Provide growth value for the following molecule: `CCN(CC)CCOc1ccc(/C(=C(\C)Cc2ccc(OC)cc2)c2ccc(OC(=O)NCc3ccccc3)cc2)cc1`
output: 63.4

input: Let me know recorded growth for `c1cc(OCCN2CCCCC2)ccc1CNc1ccc2nc(CCC3CCCCC3)[nH]c2c1` , thanks.
output: 43

input: Specify growth for `COc1ccc2[nH]cc(-c3nonc3-c3c[nH]c4ccc(Br)cc34)c2c1` and stop.
output: 15.5

input: Read off the recorded growth for `C=C(C)[C@@H]1CC[C@]2(C(=O)N3CCN(C)CC3)CC[C@]3(C)[C@H](CC[C@@H]4[C@@](C)(CCC(=O)O)[C@H](C(=C)C)CC[C@]43C)[C@@H]12`
output: 68.7

input: Consider the molecule `CC/C(=C(/c1ccc(O)cc1)c1ccc(OCCN2CCCCC2)cc1)c1ccc(OC)cc1` and give its recorded growth.
output: 52.4

input: For `O=c1oc2c(cc1-c1ccccc1)c(=O)[nH]c1ccccc12` , write its growth.
output: 101

---

- Test system: MDA-MB-231 breast
- ASSAY_PROTOCOL: NCI-60 one-dose screen, 48 h (100 = growth as untreated, 0 = no growth, -100 = all killed)
- STATED_CONDITIONS: 10 µM unless noted
The panel holds about 83,000 compounds, 20% with a hit somewhere; the sample as a whole holds those more often. The source made the active and inactive calls. How the source made its calls: active means growth percent below 10; inactive means the rest.
Please go through the items and note down their growth.

input: Look up growth of `Cc1[nH]n(-c2cccc(Cl)c2)c(=O)c1/C=C1\C=c2ccccc2=CC1=O` and report it.
output: 4.08% (active)

input: Give a short answer stating reported growth for `COc1ccc(/C=C2\CN(C(=O)C(Cl)Cl)C/C(=C\c3ccc(OC)c(OC)c3)C2=O)cc1OC` .
output: 7.12% (active)

input: Consider the compound `N#Cc1c(-c2cccc(Cl)c2)cc(-c2cccnc2)[nH]c1=O` . State its measured growth.
output: 81.9% (inactive)

input: Identify growth associated with the compound `CC[C@H](Nc1nc(N)nc(C)c1C#N)c1nc2cccc(CN(C)c3ncc(C(=O)NO)cn3)c2c(=O)n1-c1ccccc1`
output: -12.6% (active)

input: In one line, give reported growth of the entry `CC1=Nc2cnc(Nc3ccc(N4CCCCC4)cc3)nc2Nc2ccccc21` .
output: 60.4% (inactive)

---

- Tested on: HOP-92 NSCLC
- ASSAY_PROTOCOL: NCI-60 one-dose screen, 48 h (100 = growth as untreated, 0 = no growth, -100 = all killed)
- STATED_CONDITIONS: 10 µM unless noted
This is part of a sample that, as a whole, favours compounds with a hit. Of some 83,000 tested, about 20% had one in any assay.
PARAMETER: growth (%)
Write it as a number; the unit % goes unstated.

input: Write down the reported growth (system: HOP-92 NSCLC) of `COCCn1cc(-c2csc(-c3c[nH]c4ccccc34)n2)c2cccnc21`
output: 55.5

input: Given `COc1cc2ncnc(Nc3ccc(F)c(Cl)c3)c2cc1OCC(=O)N1CCOCC1` , report its growth on HOP-92 NSCLC.
output: 92.1

input: Name the value of growth reported for `Cc1c2ncccc2nc2[nH]c3ccc(OCCN(C)C)cc3c12` when tested on HOP-92 NSCLC.
output: 30.3

input: Return reported growth for target or system HOP-92 NSCLC, item `CCOc1ccc(NC(=O)Nc2ccc(OCC)cc2)cc1` .
output: 106

input: Quote growth with test system HOP-92 NSCLC for `Clc1ccc(Nc2ncc(Cc3cccc(Cl)c3Cl)s2)cc1`
output: 89

input: State, for HOP-92 NSCLC, measured growth of the compound listed here: `O=C(Nc1cccnc1Nc1ccccc1)c1cn(Cc2cccc(Oc3ccccc3)c2)nn1`
output: 71.2

input: // fetch growth; item: `CCN(CC)CCOc1ccc(C(=O)/C=C\c2ccc(Cl)cc2Cl)cc1` ; system: HOP-92 NSCLC
output: 24.5

input: Name the value of growth reported for `CS(=O)(=O)Nc1cc(-c2ccc3ncnc(Nc4ccc(OCc5ccccn5)c(Cl)c4)c3c2)cnc1Cl` when tested on HOP-92 NSCLC.
output: -6.05

input: Please report the measured growth for `C[C@@H]1NC(=O)[C@H](Cc2ccccc2)N(Cc2cccnc2)C1=O` tested on HOP-92 NSCLC.
output: 84.7

input: # lookup: HOP-92 NSCLC growth, key = `N#C/C(=C\c1ccc(-c2cccc(Cl)c2)o1)C(=O)Nc1ncc(Cc2ccc(Cl)cc2)s1`
output: 79.8

input: // fetch growth for `CCCCCCCCCCOC(=O)c1nn(C(C)=O)c2cc(C)c(C)cc12` ; system: HOP-92 NSCLC
output: 68.5

input: Provide growth, system HOP-92 NSCLC, entry `COCCn1cc(-c2csc(-c3c[nH]c4ccc(F)cc34)n2)c2cccnc21`
output: 38

input: Using HOP-92 NSCLC as the test system, report measured growth of `O=C1/C(=C/c2cccc(Br)c2)COc2ccc(O)cc21` .
output: 46

input: Write growth of `N#Cc1nn(-c2cc(=O)[nH]c3ccc(Br)cc23)c(N)c1C#N` ; system used: HOP-92 NSCLC
output: -90.8

input: // fetch growth; item: COC1C(O)CC(OC2CC(OC3CC(O[C@@H]4C(=O)c5c(cc6cc(OC7CC(OC8CC(O)C(O)C(C)O8)C(O)C(C)O7)c(C)c(O)c6c5O)CC4[C@H](OC)[C@@H](O)C(C)=O)OC(C)C3O)OC(C)C2O)OC1C (stereo not given in full) ; system: HOP-92 NSCLC
output: 5.01

input: Supply growth measured with HOP-92 NSCLC for `N[C@@H]1CCC[C@H]1NCCCCN1C(=O)c2cccc3cc([N+](=O)[O-])cc(c23)C1=O` .
output: 34.5

input: Give HOP-92 NSCLC growth for the following compound: `Cc1ccc(S(=O)(=O)OCC#CCOS(=O)(=O)c2ccc(C)cc2)cc1`
output: 40.2

input: Recall the reported growth of `Cc1cccc(-c2nc(C(C)C)sc2-c2ccnc(NCCCNS(=O)(=O)c3ccc(Cl)cc3)c2)c1` when tested on HOP-92 NSCLC.
output: 83.1

input: Report growth on HOP-92 NSCLC for this entry: C1CCC(N2CN3c4nonc4N4CN(C5CCCCC5)CN5c6nonc6N(C2)C3C45)CC1 (stereo not given)
output: 82.1

input: Provide growth, tested on HOP-92 NSCLC, for `CCOC(=O)/C(=C(/C)NCC(C)C)c1cc(O)c(O)c2c(C)cc(=O)[nH]c12` .
output: 40.2

input: Please respond with reported growth (system HOP-92 NSCLC) for `c1ccc2cc(Cn3cc(CSc4nc5ccccc5s4)nn3)ccc2c1` .
output: 98.7

input: Determine reported growth for `Cc1ccc(S(=O)(=O)OC[C@]23CCC(C)(C)C[C@H]2C2=CC[C@@H]4[C@@]5(C)CCCNC(C)(C)[C@@H]5CC[C@@]4(C)[C@]2(C)CC3)cc1` ; test system: HOP-92 NSCLC.
output: 41.8

input: Provide the reported growth (system: HOP-92 NSCLC) for `Clc1ccc2nn3c4ccccc4c(OCCN4CCOCC4)nc3c2c1`
output: 72.9

input: Fill in growth for `CCCOC(=O)Nc1nc2ccc(SCC)cc2s1` tested with HOP-92 NSCLC.
output: 96.1

input: Under HOP-92 NSCLC, report growth for CCOC(=O)c1cnn(CC(C)O)c1NC(=O)NCc1ccccc1C(F)(F)F (stereo not given)
output: 84.5

input: Fetch value of growth on HOP-92 NSCLC for `c1cc(OCCN2CCCC2)ccc1CNc1ccc2nc(CCC3CCCCC3)[nH]c2c1` .
output: 25.3

input: Give growth for `COc1ccc(/C=N/NC(=O)Cn2c(-c3ccc(S(C)(=O)=O)cc3)nc3ccccc32)cc1` tested on HOP-92 NSCLC.
output: 94.1

input: GET growth where system = HOP-92 NSCLC and item = `c1ccc(-c2ccc3c(c2)C2(CCNCC2)CN3)cc1`
output: 86.1

input: Give growth only, for `CSc1ccc2c3c(n(CCCn4ccnc4)c(=O)c2c1)-c1ccccc1C3=O` , using HOP-92 NSCLC data.
output: 83.2

input: Under HOP-92 NSCLC: report growth of `Cc1c2ccccc2nc2cc3c(cc12)[C@H]1CC[C@]2(C)C(=O)CC[C@H]2[C@@H]1CC3` .
output: 86.9
